Data origin: patent US20250171459A1

- system: APOL1 (Homo sapiens, UniProt O14791)
- Sequence (O14791 1-398 S342G/I384M): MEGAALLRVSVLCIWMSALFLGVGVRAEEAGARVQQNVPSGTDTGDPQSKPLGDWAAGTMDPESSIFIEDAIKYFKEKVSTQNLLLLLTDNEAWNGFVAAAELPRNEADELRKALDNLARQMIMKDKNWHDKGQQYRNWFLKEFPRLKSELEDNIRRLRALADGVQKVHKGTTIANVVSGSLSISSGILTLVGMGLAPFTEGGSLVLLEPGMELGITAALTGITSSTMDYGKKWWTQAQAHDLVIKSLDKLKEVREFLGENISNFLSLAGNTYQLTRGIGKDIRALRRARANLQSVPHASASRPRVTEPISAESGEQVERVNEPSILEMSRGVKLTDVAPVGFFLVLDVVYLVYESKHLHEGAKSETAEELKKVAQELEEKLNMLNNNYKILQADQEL
- protocol: MultiTox-Fluor Multiplex Cytotoxicity Assay in tet-inducible APOL1 T-REx-HEK293 cells (cell rescue, ratio of dead to live cells)
- setup.conditions: tet-inducible transgenic APOL1 T-REx-HEK293 cell lines, 50 ng/mL tet, 24 hours; read-out: IP50 (i.e., IC50 for cell proliferation)
pIC50: −log10 of the molar value.
experimental.readout: pIC50

Known pIC50 results, listed for orientation:
* C[C@H]1C[C@@]2(CCN1Cc1cnn(CC3(O)CCOCC3)c1)OCCc1c2sc(C(F)(F)F)c1CO [Compound 943] | > 7.00
* CCc1cc2c(s1)CCOC21CCN(Cc2cn(CCS(C)(=O)=O)nn2)CC1 [Compound 1085] | 6.00 to 6.30
* CCc1cc2c(s1)CCOC21CCN(Cc2csc(C(F)(F)F)n2)CC1 [Compound 1147] | 6.00 to 6.30
* CCc1cc2c(s1)CCO[C@@]21CCN(CC2CN(C(=O)Cn3cnnn3)C2)[C@@H](C)C1 [Compound 464] | > 7.00
* CCc1cc2c(s1)CCO[C@@]21CCN(C[C@H]2C[C@@H](NC(=O)c3cc(C)no3)C2)[C@@H](C)C1 [Compound 304] | > 7.00
* CCc1cc2c(s1)CCO[C@@]21CCN(Cc2cnc(NC(CO)CO)nc2)[C@@H](C)C1 [Compound 222] | > 7.00
* C[C@H]1C[C@@]2(CCN1CCO)OCCc1cc(CC(F)F)sc12 [Compound 599] | 6.30 to 7.00
* CC(=O)Nc1ccc(CN2CC[C@]3(C[C@@H]2C)OCCc2cc(Cl)sc23)cc1 [Compound 635] | > 7.00

Checklist item: pIC50 tested on APOL1 (Homo sapiens, UniProt O14791), entry CCc1cc2c(s1)C[C@@H](C)OC21CCN(Cc2cnn(C)c2)CC1 [Compound 1176] , value?
6.00 to 6.30

Lookup C[C@H]1C[C@@]2(CCN1Cc1ccccn1)OCCc1cc(Cl)sc12 [Compound 668]
6.00 to 6.30

Lookup C[C@H]1C[C@@]2(CCN1Cc1cnn(CC(O)c3ccnn3C)c1)OCCc1c2sc(C(F)(F)F)c1CO (stereo partly shown) [Compound 965]
> 7.00

Lookup CCc1cc2c(s1)CCO[C@@]21CCN(CC2(O)CCS(=O)(=O)CC2)[C@@H](C)C1 [Compound 257]
6.30 to 7.00

Lookup CCc1cc2c(s1)CCOC21CCN(Cc2ccc(C(=O)NCc3ccn(C)n3)nc2)CC1 [Compound 1059]
6.30 to 7.00

Lookup C[C@H]1C[C@@]2(CCN1Cc1cn(CCS(C)(=O)=O)nn1)OCCc1sc(Br)cc12 [Compound 522]
> 7.00

Lookup CCc1cc2c(s1)CCO[C@@]21CCN(Cc2cn(C[C@H]3C[C@@H](O)C3)nn2)[C@@H](C)C1 [Compound 126]
> 7.00

Lookup CC(C)OC[C@@H](O)Cn1cc(CN2CC[C@]3(C[C@@H]2C)OCCc2c3sc(C(F)(F)F)c2CO)cn1 [Compound 956]
> 7.00

Lookup CCc1cc2c(s1)CCO[C@@]21CCN(Cc2cn(CCOCCO)nn2)[C@@H](C)C1 [Compound 178]
6.30 to 7.00

Lookup COc1cc(OCC(N)=O)ccc1CN1CC[C@]2(C[C@@H]1C)OC[C@H](O)c1cc(Cl)sc12 [Compound 773]
> 7.00

====

- system: APOL1 (Homo sapiens, UniProt O14791)
- Sequence (O14791 1-398 S342G/I384M): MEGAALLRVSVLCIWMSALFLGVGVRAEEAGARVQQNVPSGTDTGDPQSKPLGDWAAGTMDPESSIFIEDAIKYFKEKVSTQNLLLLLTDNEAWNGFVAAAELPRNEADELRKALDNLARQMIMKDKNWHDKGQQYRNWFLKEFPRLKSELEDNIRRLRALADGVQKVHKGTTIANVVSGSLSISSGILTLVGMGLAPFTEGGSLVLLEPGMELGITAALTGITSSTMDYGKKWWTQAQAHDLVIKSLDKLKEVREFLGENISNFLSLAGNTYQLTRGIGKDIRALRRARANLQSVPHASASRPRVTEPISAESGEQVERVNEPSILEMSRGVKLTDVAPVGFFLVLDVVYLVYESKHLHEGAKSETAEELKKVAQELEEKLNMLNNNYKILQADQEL
- protocol: MultiTox-Fluor Multiplex Cytotoxicity Assay in tet-inducible APOL1 T-REx-HEK293 cells (cell rescue, ratio of dead to live cells)
- setup.conditions: tet-inducible transgenic APOL1 T-REx-HEK293 cell lines, 50 ng/mL tet, 24 hours; read-out: IP50 (i.e., IC50 for cell proliferation)
Parameter IC50: see the listing below.

Known IC50 results, listed for orientation:
* CCc1cc2c(s1)CCO[C@@]21CCN(C[C@H](O)c2ccccc2)[C@@H](C)C1 | < 100 nM
* CCc1cc2c(s1)CCO[C@@]21CCN([C@@H]2CC[C@H](NC(=O)OC(C)(C)C)C2)[C@@H](C)C1 | 100 to 500 nM
* CCc1cc2c(s1)CCOC21CCN(Cc2ccc(C(=O)Nc3cccc4cc[nH]c34)nc2)CC1 | < 100 nM
* CCc1cc2c(s1)CCO[C@@]21CCN(CC2CN(C(=O)c3ncccc3O)C2)[C@@H](C)C1 | < 100 nM

What does the record list as IC50 for C[C@H]1C[C@@]2(CCN1Cc1cnn(CC(C)(O)CO)c1)OCCc1c2sc(C(F)(F)F)c1CO (stereo partly shown) ?
< 100 nM

Lookup C[C@H]1C[C@@]2(CCN1Cc1cnn(CC(O)CC3(O)CCOC3)c1)OCCc1c2sc(C(F)(F)F)c1CO (stereo partly shown)
< 100 nM

Lookup `CCc1cc2c(s1)CCOC21CCN(Cc2cn(CCc3noc(C)n3)nn2)CC1`
500 to 1000 nM

====

Parameter IC50: see the listing below.
- system: APOL1 (Homo sapiens, UniProt O14791)
- protocol: MultiTox-Fluor Multiplex Cytotoxicity Assay in tet-inducible APOL1 T-REx-HEK293 cells (cell rescue, ratio of dead to live cells)
- setup.conditions: tet-inducible transgenic APOL1 T-REx-HEK293 cell lines, 50 ng/mL tet, 24 hours; read-out: IP50 (i.e., IC50 for cell proliferation)
- Description: The MultiTox-Fluor Multiplex Cytotoxicity Assay is a single-reagent-addition, homogeneous, fluorescence assay that measures the number of live and dead cells simultaneously in culture wells. […] The MultiTox reagent was added to each well and placed back in the incubator for an additional 30 minutes. The plate was read on the EnVision plate reader. A ratio of dead to live cells was used to normalize, and data was imported, analyzed, and fit using Genedata Screener (Basel, Switzerland) software. […]

• C[C@@H](CO)Cn1cc(CN2CC[C@]3(C[C@@H]2C)OCCc2c3sc(C(F)(F)F)c2CO)cn1 = < 100 nM
• CCc1cc2c(s1)CCO[C@@]21CCN(Cc2cn(C[C@@H](C)O)nn2)[C@@H](C)C1 = < 100 nM
• C[C@H]1C[C@@]2(CCN1CC(O)C(F)(F)F)OCCc1cc(CC(F)F)sc12 (some centres unmarked) = < 100 nM
• CCc1cc2c(s1)CCO[C@@]21CCN(C[C@H]2C[C@@H](NC(=O)C3CC(C(F)(F)F)C3)C2)[C@@H](C)C1 (some centres unmarked) = 100 to 500 nM

What does the record list as IC50 for `CCc1cc2c(s1)CCO[C@@]21CCN(Cc2cn(CCS(=O)(=O)NC)nn2)[C@@H](C)C1` ?
< 100 nM

Lookup `C[C@H]1C[C@@]2(CCN1Cc1cnn(CC3CCOCC3)c1)OCCc1c2sc(Cl)c1CO`
100 to 500 nM

Lookup `C[C@H]1C[C@@]2(CCN1Cc1cnn(C[C@@H](O)C(N)=O)c1)OC[C@@H](O)c1cc(C(F)(F)F)sc12`
< 100 nM

Lookup `CCc1cc2c(s1)CCO[C@@]21CCN(Cc2cn(Cc3cnn(C)n3)nn2)[C@@H](C)C1`
< 100 nM

Lookup C[C@H]1C[C@@]2(CCN1Cc1cnn(CC3CC4(CCC4)C(=O)O3)c1)OCCc1c2sc(C(F)(F)F)c1CO (some centres unmarked)
< 100 nM

Lookup `C[C@H]1C[C@@]2(CCN1Cc1cccc(OCC(N)=O)c1)OCCc1c2sc(Cl)c1CO`
100 to 500 nM

Lookup C[C@H]1C[C@@]2(CCN1Cc1cnn(CCS(C)(=O)=O)c1)OCC(C#N)c1cc(Cl)sc12 (some centres unmarked)
< 100 nM

Lookup `CCc1cc2c(s1)CCOC21CCN(Cc2ccc(C(=O)N(C)[C@H]3CC[C@H](O)CC3)nc2)CC1`
500 to 1000 nM

Lookup `CCc1cc2c(s1)CCO[C@@]21CCN(C[C@H]2C[C@@H](NC(=O)c3cc(C)[nH]n3)C2)[C@@H](C)C1`
< 100 nM

Lookup `CCc1cc2c(s1)CCO[C@@]21CCN(Cc2cn(C3CCN(S(C)(=O)=O)CC3)nn2)[C@@H](C)C1`
100 to 500 nM

Lookup `CCc1cc2c(s1)CCO[C@@]21CCN(C[C@H]2C[C@H](NC(=O)OC(C)(C)C)C2)[C@@H](C)C1`
100 to 500 nM
